Please go through the items and note down their normalized growth.
testProtocol: chemical genetic growth profiling, strain panel (AID 1159580);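 further: tested at 20 µM; growth read once vehicle control cultures reached saturation at 30 °C; 1 = growth at the plate median or of vehicle wells; lower values mean less growth of the strain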
protocolConditions: S. cerevisiae deletion strains, growth OD, locus YHR200W, strain rpn10, active compounds read low
Screen size: about 5,500 compounds; about 2,000 (36%) were called active. Inconclusive results (about 18%) are left out. The list shows a part of the results.
Numbers only.

Recorded normalized growth, per entry:
Nc1c2c(nc3ccccc13)CCCC2O (configuration not stated) = 0.973
Cc1ccc(S(=O)(=O)NC(=O)NN2CC3CCCC3C2)cc1 (configuration not stated) = 1.01

Look at each compound and report its normalized growth.
1. COc1ccc2c3c([nH]c2c1)C(C)=NCC3
2. COC(=O)Nc1nc2ccc(C(=O)c3ccccc3)cc2[nH]1
3. NNc1nncc2ccccc12
4. CNC(=O)O/N=C\C(C)(C)SC
5. OC(CCN1CCCC1)(c1ccccc1)C1CCCCC1 (configuration not stated)

### Response
[0.982, 0.917, 0.997, 0.98, 0.974]

---

testProtocol: chemical genetic growth profiling, strain panel (AID 1159580)
protocolConditions: S. cerevisiae deletion strains, growth OD, locus YDL005C, strain med2, active compounds read low
The whole screen tested about 5,500 compounds, of which about 2,000 (36%) were called active. Inconclusive results (about 18%) are left out. The list shows a part of the results.
measuredProperty: normalized growth
Give bare numbers.

Look at each molecule and report its normalized growth.
1. CC(=O)/C=C\[C@@H]1[C@@]2(C)CCCC(C)(C)C2CC[C@@]1(C)O (stereo not given in full)
2. CCOP(=S)(OCC)Oc1nc(Cl)c(Cl)cc1Cl
3. C#C[C@]1(OC(C)=O)CCC2C3CCC4=CC(=O)CC[C@@H]4C3CC[C@@]21C (stereo not given in full)
4. O=C1C(O)=C(O)C(=O)C(O)=C1O

### Response
0.971
0.968
0.971
1.01

### Prompt Return reported normalized growth; argument: COC(=O)C[C@H]1C(C)(C)C2(O)OC34CC2C(=O)[C@]1(C)C3CC[C@]1(C)C4=CC(=O)O[C@H]1c1ccoc1 (stereo not given in full)
### Response 0.991

---

testProtocol: chemical genetic growth profiling, strain panel (AID 1159580)
protocolConditions: S. cerevisiae deletion strains, growth OD, locus YIL125W, strain kgd1
Out of some 5,500 compounds screened, about 2,000 (36%) were called active. Not shown: some 18% with an inconclusive outcome. No stated cut-off is given here; in the data, active means normalized growth mostly below about 0.91 (no sharp cut-off); inconclusive means no clear call, values can overlap the other calls; inactive means mostly above about 0.92. The list shows a part of the results.
Select the correct class. Options are active, inactive and nothing else.

Take a look at these entries with their results.
O=C(O)/C=C1\CCCc2ccccc2C1O (stereo not given) = inactive
CCC(C)C(=O)O[C@H]1[C@H](O)C2C(CN3CC(C)CCC3[C@@]2(C)O)C2C[C@]34O[C@]5(O)C(OC(=O)C(C)(O)CC)CC[C@@]3(C)C5C(OC(C)=O)[C@@H](OC(C)=O)C4[C@@]21O (stereo not given in full) = inactive
Cc1ccc(S(=O)(=O)NC(=O)NN2CC3CCCC3C2)cc1 (stereo not given) = inactive
Nc1ccccc1C(=O)CC(N)C(=O)O (stereo not given) = inactive
O=c1[nH]cc(F)c(=O)[nH]1 = active

### Prompt For this molecule, state the assay outcome: CC(=O)OC1CC(OC(C)=O)C2(C)C(CC(OC(C)=O)C3(C)C4=CC(=O)OC(=O)C4(C)CCC32)C1(C)C (stereo not given)
### Response inactive

### Prompt Then COc1cccc(OC)c1OCCNCC1COc2ccccc2O1 (stereo not given) ?
### Response inactive

### Prompt Then CC(=O)O[C@H]1CC[C@@]2(C)C(CC[C@]3(C)C2CC=C2C4CC(C)(C)CC[C@]4(C)CC[C@]23C)C1(C)C (stereo not given in full) ?
### Response inactive

### Prompt Then CCCCCCCCCCCC[C@H](C(=O)O)[C@@H](C)C(=O)O ?
### Response inactive

### Prompt Then NCCC(=O)N[C@@H](Cc1cnc[nH]1)C(=O)O ?
### Response inactive

---

testProtocol: chemical genetic growth profiling, strain panel (AID 1159580)
protocolConditions: S. cerevisiae deletion strains, growth OD, locus YAL013W, strain DEP1, active compounds read low
Out of some 5,500 compounds screened, about 2,000 (36%) were called active. Not shown: some 18% with an inconclusive outcome. Some of the results follow. Where a SMILES comes first, the peptide text is derived from it. The star is where a group is joined. For = O=C*
Please go through the items and note down their normalized growth.

Recorded normalized growth, per entry:
Cc1cc(=O)n2[nH]cc(C#N)c2n1 = 1 (inactive)
Cc1c(S(=O)(=O)c2ccc(Cl)cc2)cnc2cc(C(C)(C)C)nn12 = 1.01 (inactive)

Look at each compound and report its normalized growth.
1. CSCCC(NC=O)C(=O)NC(Cc1ccccc1)C(=O)O (stereo not drawn) (For-Met-Phe-OH; configuration not given here)
2. CN1C2CCC1CC(NC(=O)c1nn(C)c3ccccc13)C2 (configuration not stated)
3. CC(C)(C)OC(=O)C(C)(C)S(=O)(=O)c1ccc(Cl)cc1
4. NO
5. Nc1ccc(S(=O)(=O)c2ccc(N)cc2)cc1

### Response
1: 1.02 (inactive); 2: 1.02 (inactive); 3: 1.01 (inactive); 4: 0.994 (inactive); 5: 1.01 (inactive)

---

testProtocol: chemical genetic growth profiling, strain panel (AID 1159580);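 further: tested at 20 µM; growth read once vehicle control cultures reached saturation at 30 °C; 1 = growth at the plate median or of vehicle wells; lower values mean less growth of the strain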
protocolConditions: S. cerevisiae deletion strains, growth OD, locus YDR502C, strain sam2
Hit rate of the full screen: of about 5,500 compounds, about 2,000 (36%) were called active. Another 18% or so got no clear call; they are omitted. Cut-off read from the data, not from the text of the source: active = normalized growth mostly below about 0.91 (no sharp cut-off); inconclusive = no clear call, values can overlap the other calls; inactive = mostly above about 0.92. This is one part of the list.
Select the correct class. Options are 1 for active, 0 for inactive and nothing else.

C[C@@H]1CC[C@]2(C(=O)O)CC[C@]3(C)C(=CCC4[C@@]5(C)CC[C@H](O)C(C)(C)C5CC[C@]43C)C2[C@H]1C (stereo partly specified) = 0
CC(C)CC(N(C)C)C1(c2ccc(Cl)cc2)CCC1 (stereo unspecified) = 0
C[C@@H]1CC[C@H]2[C@@H](C)C(O)O[C@@H]3O[C@@]4(C)CC[C@@H]1[C@]32OO4 (stereo partly specified) = 1
C/C=C(/C)C(=O)O[C@@H]1[C@H](OC(C)=O)[C@@]2(CO)C(CC1(C)C)C1=CCC3[C@@]4(C)CC[C@H](O[C@@H]5O[C@H](C(=O)O)[C@@H](O[C@@H]6O[C@H](CO)[C@@H](O)[C@H](O)[C@H]6O)[C@H](O)[C@H]5O[C@@H]5O[C@H](CO)[C@@H](O)[C@H](O)[C@H]5O)[C@](C)(CO)C4CC[C@@]3(C)[C@]1(C)C[C@H]2O (stereo partly specified) = 0
COc1cccc(OC)c1OCCNCC1COc2ccccc2O1 (stereo unspecified) = 0

Attention now shifts to the item below.
### Prompt For this compound, state the assay outcome: C[C@H]1[C@H](C)CC[C@]2(CO)CC[C@]3(C)C(=CCC4[C@@]5(C)CC[C@H](O)C(C)(C)C5CC[C@]43C)[C@H]12 (stereo partly specified)
### Response 0

---

testProtocol: chemical genetic growth profiling, strain panel (AID 1159580);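 further: tested at 20 µM; growth read once vehicle control cultures reached saturation at 30 °C; 1 = growth at the plate median or of vehicle wells; lower values mean less growth of the strain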
protocolConditions: S. cerevisiae deletion strains, growth OD, locus YAL030W, strain snc1
In all, about 5,500 compounds went through this assay and about 2,000 (36%) were called active. Another 18% or so got no clear call; they are omitted. Cut-off read from the data, not from the text of the source: active = normalized growth mostly below about 0.91 (no sharp cut-off); inconclusive = no clear call, values can overlap the other calls; inactive = mostly above about 0.92. The list shows a part of the results.
Select the correct class. Options are active, inactive and nothing else.

COc1cc(N)c(Cl)cc1C(=O)NC1CCN(Cc2ccccc2)CC1 = inactive
COc1cccc2c1C(=O)c1c(O)c3c(c(O)c1C2=O)C[C@@](O)(C(=O)CO)C[C@@H]3O[C@H]1C[C@H](N)[C@@H](O)[C@H](C)O1 = active
CNC(=O)O/N=C\C(C)(C)SC = inactive
COc1cccc2c1C(=O)c1c(O)c3c(c(O)c1C2=O)C[C@@](O)(C(=O)CO)C[C@@H]3OC1C[C@H](N)[C@H](O)[C@H](C)O1 (some centres not stated) = active
N=C(N)SCCN = inactive
CC(=O)NCc1c(I)c(NC(C)=O)c(I)c(C(=O)O)c1I = inactive

Attention now shifts to the item below.
### Prompt For this compound, state the assay outcome: O=C(Nc1ccc(C(=O)O)c(O)c1)c1ccccc1
### Response inactive

---

testProtocol: chemical genetic growth profiling, strain panel (AID 1159580);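 further: tested at 20 µM; growth read once vehicle control cultures reached saturation at 30 °C; 1 = growth at the plate median or of vehicle wells; lower values mean less growth of the strain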
protocolConditions: S. cerevisiae deletion strains, growth OD, locus YEL061C, strain CIN8, active compounds read low
The whole screen tested about 5,500 compounds, of which about 2,000 (36%) were called active. Another 18% or so got no clear call; they are omitted. The list shows a part of the results. Where a SMILES comes first, the peptide text is derived from it. Bridges are numbered along the chain shown (N, C = ends). [ ]: non-standard residue; d: D form. The star is where a group is joined. ξ: configuration not given here. ξDab(CH2SO3H) = NC(CCNCS(=O)(=O)O)C(=O)O; Heptanoyl(6-Me) = CC(C)CCCCC(=O)*; Dab = NCC[CH](N)C(=O)O
Please go through the items and note down their normalized growth.
One number for each entry.

Cc1cc(O)cc(=O)o1 = 1
COC1=C[C@@H]2[C@@H]3Cc4ccc(OC)c(O)c4[C@]2(CCN3C)CC1=O = 0.982
Nc1ccc(S(=O)(=O)Nc2ccnn2-c2ccccc2)cc1 = 1.01
CC(=O)O[C@@H]1CC[C@@]2(C)C(CC[C@]3(C)C2CC=C2C4CC(C)(C)CC[C@]4(C(=O)O)CC[C@]23C)C1(C)C (stereo not given in full) = 1
O=C(COc1ccc2c(c1)OCO2)N1CCN(c2ncc(C(F)(F)F)cc2Cl)CC1 = 0.948
CNC(=O)O/N=C\C(C)(C)SC = 1

Look at each compound and report its normalized growth.
1. OC(CCN1CCCCC1)(c1ccccc1)C1CCCCC1 (stereo not given)
2. Cc1cc(OCOc2ccc(Cl)c(C)c2)ccc1Cl
3. O=C(Nc1ccc(Cl)c(Cl)c1)c1ccccc1
4. O=C(NC1CCN(Cc2ccc(Cl)c(Cl)c2)CC1)c1ccccc1
5. Cc1noc(C)c1C(=O)N1CCN(c2ncc(C(F)(F)F)cc2Cl)CC1
6. COC(=O)c1cccc(NC(=O)CC2C(=O)NCCN2C(=O)c2cccs2)c1 (stereo not given)
7. O=C(COc1ccc(Cl)cc1)N1CCN(Cc2ccc3c(c2)OCO3)CC1
8. O=C(O)CSCC(=O)NC1CCN(Cc2ccccc2)CC1

### Response
1: 1.01; 2: 0.992; 3: 0.813; 4: 0.946; 5: 0.975; 6: 1.01; 7: 0.985; 8: 1.02

Look at each compound and report its normalized growth.
1. COC(=O)Nc1nc2ccc(C(=O)c3ccccc3)cc2[nH]1
2. Cc1cccc(NC(=S)NCc2ccncc2)c1
3. CCC(C)C1NC(=O)C(CCNCS(=O)(=O)O)NC(=O)C(NC(=O)C(CCNCS(=O)(=O)O)NC(=O)C(NC(=O)C(CCNCS(=O)(=O)O)NC(=O)CCCCC(C)C)C(C)O)CCNC(=O)C(C(C)O)NC(=O)C(CCNCS(=O)(=O)O)NC(=O)C(CCNCS(=O)(=O)O)NC(=O)C(C(C)CC)NC1=O (stereo not given) ({Heptanoyl(6-Me)}-[ξDab(CH2SO3H)]T[ξDab(CH2SO3H)][Dab][ξDab(CH2SO3H)]II[ξDab(CH2SO3H)][ξDab(CH2SO3H)]T; lactam 4-C; configuration not given here)
4. Cc1cc(C2=CSC3=NCCN23)ccc1Cl

### Response
1
1.01
0.982
1

Look at each compound and report its normalized growth.
1. Cc1nn(C)c(C)c1NS(=O)(=O)c1cc(Cl)sc1Cl
2. Cc1cc(O)cc(O)c1C(=O)O

### Response
[1.03, 1.01]

Numbers sourced from PubChem BioAssay AID1159580.
